- TARGET ENTITY: GABA A receptor alpha-2/beta-2/gamma-2 (Homo sapiens, UniProt P18507+P47869+P47870)
- Sequence (P47870 whole entry): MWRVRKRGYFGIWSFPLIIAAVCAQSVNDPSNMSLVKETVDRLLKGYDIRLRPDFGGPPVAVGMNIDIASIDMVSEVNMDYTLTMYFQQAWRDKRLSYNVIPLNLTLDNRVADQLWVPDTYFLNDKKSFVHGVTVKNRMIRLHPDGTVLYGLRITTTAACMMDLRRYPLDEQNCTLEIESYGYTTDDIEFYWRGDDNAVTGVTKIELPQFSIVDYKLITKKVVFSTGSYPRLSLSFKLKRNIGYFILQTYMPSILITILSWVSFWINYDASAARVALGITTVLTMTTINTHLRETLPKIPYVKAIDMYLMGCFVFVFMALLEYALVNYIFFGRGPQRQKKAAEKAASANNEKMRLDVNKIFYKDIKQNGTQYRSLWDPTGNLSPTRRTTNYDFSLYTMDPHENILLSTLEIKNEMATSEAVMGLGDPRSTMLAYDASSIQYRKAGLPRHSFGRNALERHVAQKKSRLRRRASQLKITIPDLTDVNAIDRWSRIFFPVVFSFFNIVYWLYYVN
- Sequence (P18507 whole entry): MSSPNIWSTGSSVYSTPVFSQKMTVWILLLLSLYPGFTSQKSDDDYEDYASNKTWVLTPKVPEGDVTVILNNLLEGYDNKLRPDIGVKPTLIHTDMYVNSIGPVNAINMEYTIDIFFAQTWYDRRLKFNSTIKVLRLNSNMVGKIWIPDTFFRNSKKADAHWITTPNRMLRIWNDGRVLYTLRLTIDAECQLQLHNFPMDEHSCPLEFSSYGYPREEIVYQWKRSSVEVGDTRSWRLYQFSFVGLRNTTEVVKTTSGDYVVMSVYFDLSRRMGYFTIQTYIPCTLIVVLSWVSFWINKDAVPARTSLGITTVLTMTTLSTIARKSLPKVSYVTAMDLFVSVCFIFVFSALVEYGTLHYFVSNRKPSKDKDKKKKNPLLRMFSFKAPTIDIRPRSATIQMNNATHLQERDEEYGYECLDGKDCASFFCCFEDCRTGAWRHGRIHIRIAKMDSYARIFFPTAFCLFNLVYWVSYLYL
- Sequence (P47869 whole entry): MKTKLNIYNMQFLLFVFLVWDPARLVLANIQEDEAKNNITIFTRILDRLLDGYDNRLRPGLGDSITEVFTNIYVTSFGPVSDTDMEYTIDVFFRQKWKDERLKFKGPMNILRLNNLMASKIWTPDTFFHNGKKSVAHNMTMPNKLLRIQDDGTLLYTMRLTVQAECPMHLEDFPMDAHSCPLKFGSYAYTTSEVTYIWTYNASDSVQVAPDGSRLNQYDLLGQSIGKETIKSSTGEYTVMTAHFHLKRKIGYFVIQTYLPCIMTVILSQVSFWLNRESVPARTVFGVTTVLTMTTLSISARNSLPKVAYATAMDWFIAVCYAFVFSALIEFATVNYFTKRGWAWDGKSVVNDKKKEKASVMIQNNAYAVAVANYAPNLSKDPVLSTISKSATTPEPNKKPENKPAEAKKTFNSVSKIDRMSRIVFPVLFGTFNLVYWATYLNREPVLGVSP
- PROCEDURE TEXT: Agonist activity at human GABAA alpha2beta2gamma2S receptor expressed in TSA201 cells after 1 min by FLIPR assay
pEC50: −log10 of the molar value.
MEASURED ENDPOINT: pEC50

- NCc1cc(O)no1: 6.39
- NCc1cnn(O)c1: 5.35

---

- PROCEDURE TEXT: Displacement of [3H]muscimol from GABAA receptor in rat synaptic membrane after 60 mins by scintillation counting analysis
- Type: cell membranes
In this scheme, each record receives a class according to its Ki; the ranges are range A (below 0.6 µM), range B (0.6 µM to below 30 µM), range C (30 µM or more)

- NCc1cn(O)nc1-c1cccc(-c2ccccc2)c1: range B
- NCc1cn(O)nc1Cc1ccccc1: range C
- NCc1cn(O)nc1-c1ccccc1: range C
- NCc1cnn(O)c1: range A
- NCc1cn(O)nc1I: range C
- Cc1nn(O)c(C)c1CN: range C
- Oc1noc2c1CCNC2 [GABOXADOL]: range A
- NCc1cnn(O)c1Br: range B
- Cc1nn(O)cc1CN: range C
- NCc1cn(O)nc1N: range C
- NCc1cnn(O)c1Cl: range B
- NCc1cn(O)nc1CCc1ccncc1: range C
- NCc1cn(O)nc1-c1ccc(-c2ccccc2)cc1: range B
- NCc1cn(O)nc1CCc1ccccc1: range C
- On1ncc2c1CCNC2: range C
- Cc1c(CN)cnn1O: range B
- Cc1c(O)noc1CN: range C
- NCc1cc(O)no1 [MUSCIMOL]: range A
- On1cc2c(n1)CCNC2: range C
- CCc1nn(O)cc1CN: range C
